Cited source for all entries: patent US20230357429A1

molecular target: T1, TCE-10 (anti-CD3 scFv R100A; anti-TROP2 wt); experiment: competition ELISA, TCE on captured CD3
T1 construct: scFv on the Fab heavy chain; also called TCE-10 (R100A)
Where no end group is shown, it is not given here.
measured_parameter: IC50

Value of measured IC50 for the entry VYCGPEFDESVGCA (cysteine pairing not given here; also: biotinylated, site not given here, mask peptide for the CD3 scFv) [Peptide-73] : > 3 µM
